# System: PPARa:RXRa (NR concentration 270 nM, RXRa partner concentration 90 nM)
# ASSAY PROCEDURE: PBM binding z-score (relative to random genomic background probes); higher = stronger binding; sequences stand for … in GC…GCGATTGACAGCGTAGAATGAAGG
Use 2 as the dividing line for PBM binding z-score, with the line itself on the true side and lower values as false.

> print(dat)
                          biosequence  group.label
1  TTACCAAGGTGAGCTGAGGTCCTTGATCCAACTC        false
2  ACAGACAGGTGAGTTAAGGTAACTCAGCTGGACG        false
3  CCTAGTTGGTCAGGAGGGCACACACCGGATATGA        false
4  CCCACTGGGGCATAAGGTTACCATAAGCCAGCCC         true

Q: Item `ACAGACAAGTGAGTGAAGGTAACTCAGCTGGACG` with PBM binding z-score of 2 or above?
A: false

Q: Does the reported PBM binding z-score for `AGAATGAAGTTATTAAGATCAGGGAATTGCGGTC` fall at or above the 2 mark?
A: false

Q: Could you verify whether the entry `AATAGAGGGTCACTAGGCCAGAGTAGGTACGAAT` shows PBM binding z-score of no less than 2?
A: true

Q: Threshold query (PBM binding z-score >= 2) on `CAAACTAGGTCAAGGTCAAACTCGGTTTGTGCCA`
A: true

Q: State whether the measured PBM binding z-score reaches 2, counting equality as reaching it, for `ATATGTAGGTTAAGGGTCATTCTGGTTGGTTCGC`
A: true

Q: Does the reported PBM binding z-score for `TTACCAAGGGGAAAGGTCGTTGATGCACGCCTTG` fall at or above the 2 mark?
A: true

Q: Assess whether reported PBM binding z-score for `CGTCAAAGTTCAAGGTAACGTACCAGAAAGCAGC` sits at 2 or higher.
A: true

Q: Is the recorded value of PBM binding z-score equal to or greater than 2 for this sequence? `GTTGCTAGGTCAACTGATGGTCAGCTAAAGCTCG`
A: true

Q: Does PBM binding z-score meet or surpass 2 for `GCTGCTAGGTCAGGTTGGTCAGCGAACGGGTACG` ?
A: false

Q: Decide: is the reported value of PBM binding z-score for `TCTCGGCGGACACGAAAGGTCAGAGCTCGACATC` equal to or greater than 2?
A: true

Q: Decide: PBM binding z-score of `AGTCAAAGTTCAGGACGAGTTAACGTAAAGCACG` >= 2?
A: true

Q: Does PBM binding z-score meet or surpass 2 for `CCTAGAAGGCCAGGGTCACTCAAGCATTTCGCTT` ?
A: true

Q: Please tell me: is the sequence `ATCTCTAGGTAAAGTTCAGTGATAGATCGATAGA` at or over 2 in terms of PBM binding z-score?
A: true

Q: Does PBM binding z-score meet or surpass 2 for `ATACCAAGGTGTTCGTGAGGTCGTTGATACTAAC` ?
A: false

Q: In plain terms: is recorded PBM binding z-score at least 2 for `TCTCGGAGGACACGAAGGTCAGACCTTTCCAGAG` ?
A: true
